A collection of binders and their measured FACS binding data
target: Mutant CD33-GFP N20D on 293FT cells (UniProt P20138); test: FACS, mutant CD33-GFP on 293FT cells
Sequence (P20138 18-364 N20D): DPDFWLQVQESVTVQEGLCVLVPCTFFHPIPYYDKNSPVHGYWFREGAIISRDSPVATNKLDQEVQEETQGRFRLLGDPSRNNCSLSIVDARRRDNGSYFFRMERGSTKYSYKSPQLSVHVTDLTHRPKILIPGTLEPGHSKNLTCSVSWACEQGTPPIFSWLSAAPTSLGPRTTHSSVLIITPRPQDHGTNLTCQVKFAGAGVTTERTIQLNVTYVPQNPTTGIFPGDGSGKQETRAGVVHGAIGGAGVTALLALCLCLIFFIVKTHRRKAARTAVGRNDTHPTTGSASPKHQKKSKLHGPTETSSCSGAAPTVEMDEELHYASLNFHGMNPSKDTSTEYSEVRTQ
Give the figure only, with no unit attached.

Binder | Observed
sdCD33_6 (VHH, sdAb from a naive llama phage library; also called 416; sdAb416) VHH: EVQLVESGGGLVQPRGSLRLSCVVSGSMSSIYSMSWYRQPPGKQRELVAHITTTGTTNYIDSVKGRFTISIDNDINVIYLQMNTLKPEDTAVYYCNAGLKAGPGPRLDYWGLGTQVTVSS | 99
sdCD33_10 (VHH) VHH: QVQLVETGGGLVRAGGSLRLSCAASGRTADIYNIGWFRQAPGKEREFVAAITWIGRTPYYADAVKGRFAFSTDSAKNTVSLQMDNLKPEDTGVYYCNAAHYLEGNTDYYWGQGTQVTVSS | 96.6
sdCD33_5 (VHH, sdAb from a naive llama phage library; also called 413; sdAb413) VHH: QVQLQESGGGLVQPGGSLRLSCAASGSVFSIYAMAWYRQAPGKQRELVAVITSGGATNYADSVKGRFTISRDIAKKTLYLQMNTLKPEDTAVYYCYAHLLIQPFDRFYDYWGQGTQVTVSS | 56.7
sdCD33_3 (VHH) VHH: DVQLVESGGGLVQPGGSLRLSCSVSGNIDRFYAMGWYRQAPGKQRELVAQLTNNEITTYGDSVEGQFSISGDFDANTVYLQMDSLKPEDTAVYYCHAHVTTTRWSQDYYWGQGTRVTVSS | 98.7
sdCD33_11 (VHH, sdAb from a naive llama phage library; also called 430; sdAb430) VHH: AVQLVESGGGLVQAGGSLRLSCAASGDTFANYAMGWFRQAPGKEREFVAAISWSDSSTHYADSVKGRFTIPRDNAKNAVYLQMDQLKPEDMAVYYCYAYIRGVGEVRYVDYWGQGTQVTVSS | 97.5

Incoming: Recall and state the measured FACS binding data for sdCD33_2 (VHH) VHH: QVQLVQPGGSLRLFCVASEEFFSIYAMGWYRQAPGKQHEMVARFTRDGKITYADSAKGRFTITRDAKNTLNLQMNGLIPEDTAVYYCNINHYWGQGTQVTVSS .
Outgoing: 98.9

Incoming: Recall and state the measured FACS binding data for sdCD33_9 (VHH, sdAb from a naive llama phage library; also called 426; sdAb426) VHH: QVKLEESGGGLVRAGGSLRLSCAASGGTFSTYAMAWFRQAPGKEREFVAAITWGGGSTYYEDSVKGRFTISRDNAKNTGVLQMNNLDVDDTAVYYCYAFGRSRAGDANGDYWGQGTQVTVSS .
Outgoing: 99.1

Incoming: Recall and state the measured FACS binding data for sdCD33_4 (VHH) VHH: QVKLEESGGGSVQAGESLRLSCTASGITFRDYDIDWYRQAPGKEREWLATITPSGTTHYPDSVKGRATISRDSAKNTVYLQMNSLKPEDTARYECNTLAYWGSGTQVTVSS .
Outgoing: 98.5

Incoming: Recall and state the measured FACS binding data for sdCD33_8 (VHH, sdAb from a naive llama phage library; also called 424; sdAb424) VHH: QVQLVESGGGLVQAGGSLRLSCAASGGAFSTYTMGWFRQAPGKEREFVAAIAWTGTHTYYSDSVKGRFTISRDNDKNTVFLQMNSLKPEDTAVYYCAQASSRYRAVTDSLSENHWGPGTQVTVST .
Outgoing: 98.3

Incoming: Recall and state the measured FACS binding data for sdCD33_7 (VHH, sdAb from a naive llama phage library; also called 420; sdAb420) VHH: EVQLVESGGGLVQPGGSLRLSCVASGFTFKDYGMTWVRQAPGKALEWVSDINSAGDGIYYSDSVKGRFTISRDDSKGTLYLQMNSLTPEDTAIYYCAAERQRAGDVKRSLAPITAHIWGQGTQVTVSS .
Outgoing: 99.1
